Test system: PC3 cells
Test: PC3 proliferation under hypoxia or normoxia
Format: cell-based, human
Details: Homo sapiens, PC-3, 48 h, read-out: IC50, PC3 proliferation under normoxia
Quantity Name: IC50 (nM)
Respond numerically; units are nM and should not be typed.

Provide IC50, tested on PC3 cells, for CC(C)[C@]12O[C@H]1[C@@H]1O[C@]13[C@]1(O[C@H]1C[C@H]1C4=C(CC[C@@]13C)C(=O)OC4)[C@@H]2O [triptolide] .
4.5

---

Test system: PC3 cells
Assay: PC3 proliferation under hypoxia or normoxia
Type: cell-based, human
Settings: Homo sapiens, PC-3, 48 h, read-out: IC50, PC3 proliferation under hypoxia
Quantity Name: pIC50
Value format note: pIC50 is -log10 of concentration (mol/L); just state the number.

Check the records and state pIC50 for CC(C)[C@]12O[C@H]1[C@@H]1O[C@]13[C@]1(O[C@H]1C[C@H]1C4=C(CC[C@@]13C)C(=O)OC4)[C@@H]2O [triptolide]
8.82
